- System: HOP-62 NSCLC
- protocol-details: NCI-60 one-dose screen, 48 h (100 = growth as untreated, 0 = no growth, -100 = all killed)
- run-conditions: 10 µM unless noted
The panel holds about 83,000 compounds, 20% with a hit somewhere; the sample as a whole holds those more often.
Define the label as fulfilled when growth is strictly less than 90% and as not fulfilled in all remaining cases.

{"compound-structure-string": "COC(=O)N[C@H]1CCc2c(Cl)c(OC)c(OC)c(OC)c2-c2ccc(SC)c(=O)cc21", "classification": "fulfilled"}
{"compound-structure-string": "Cn1cc(-c2nc(-c3c[nH]c4c(Cl)nccc34)cs2)c2cc(Br)ccc21", "classification": "fulfilled"}
{"compound-structure-string": "CCc1c(Cl)nc(N)nc1Nc1ccc(C)c(C)c1", "classification": "not fulfilled"}
{"compound-structure-string": "O=C(C[n+]1cccc2ccccc21)c1ccc(O)c(O)c1", "classification": "not fulfilled"}

====

- System: 786-0 renal
- protocol-details: NCI-60 one-dose screen, 48 h (100 = growth as untreated, 0 = no growth, -100 = all killed)
- run-conditions: 10 µM unless noted
About 83,000 compounds went through this panel and 20% of them were active in at least one assay; those are over-represented in the sample as a whole.
Form field: growth (one value per entry).
property: growth (%)

{"compound": "Cc1ccc(/C=N/NC(=O)CSc2nc3ccccc3c(=O)n2Cc2ccc(S(N)(=O)=O)cc2)cc1", "assayed-target": "786-0 renal", "property": "growth", "quantitative-readout": 99.3}
{"compound": "O=c1ccc(-c2nc(N3CCOCC3)c3ccccc3n2)c[nH]1", "assayed-target": "786-0 renal", "property": "growth", "quantitative-readout": 97.1}
{"compound": "CN1CCN(C(=O)[C@]23CCC(C)(C)C[C@H]2C2=CC[C@@H]4[C@@]5(C)C/C(=C/c6ccncc6)C(=O)C(C)(C)[C@@H]5CC[C@@]4(C)[C@]2(C)CC3)CC1", "assayed-target": "786-0 renal", "property": "growth", "quantitative-readout": 67.2}
{"compound": "O=C(CCN1CCCC1)Nc1ccc2c(NCCc3ccccc3)c3ccccc3nc2c1", "assayed-target": "786-0 renal", "property": "growth", "quantitative-readout": -12.4}
{"compound": "C[C@H](c1nc2ccc(N)cc2[nH]1)[C@H]1CC[C@H]2[C@@H]3CCC4=CC(=O)CC[C@]4(C)[C@H]3CC[C@]12C", "assayed-target": "786-0 renal", "property": "growth", "quantitative-readout": 59.4}
{"compound": "COc1cccc(-c2nc3occn3c2-c2ccnc(NCCCNS(=O)(=O)c3ccc(C(F)(F)F)cc3)n2)c1", "assayed-target": "786-0 renal", "property": "growth", "quantitative-readout": 86.8}
{"compound": "CC1=C(C(=O)/C=C/c2c[nH]c3ccccc23)C(c2ccccc2)NC(=S)N1 (configuration not stated)", "assayed-target": "786-0 renal", "property": "growth", "quantitative-readout": 102}
{"compound": "NS(=O)(=O)c1ccc(Cn2c(SCC(=O)N/N=C/c3ccccc3O)nc3ccccc3c2=O)cc1", "assayed-target": "786-0 renal", "property": "growth", "quantitative-readout": 71.1}
{"compound": "CCSCC1CC(O)(c2ccccc2)CC(c2ccc(F)cc2)O1 (configuration not stated)", "assayed-target": "786-0 renal", "property": "growth", "quantitative-readout": -23.7}
{"compound": "O=C(C1CCC1)N1N=C(c2ccc(-n3ccc(C(F)(F)F)n3)cc2)CC1c1ccc[nH]1 (configuration not stated)", "assayed-target": "786-0 renal", "property": "growth", "quantitative-readout": 95.8}
{"compound": "CN1CCN(C(=O)[C@]23CCC(C)(C)C[C@H]2C2=CC[C@@H]4[C@@]5(C)C/C(=C/c6cccnc6)C(=O)C(C)(C)[C@@H]5CC[C@@]4(C)[C@]2(C)CC3)CC1", "assayed-target": "786-0 renal", "property": "growth", "quantitative-readout": 73.7}
{"compound": "CC1(C)NCCC[C@]2(C)[C@H]3CC(=O)[C@H]4[C@@H]5C[C@](C)(CO)CC[C@]5(C)CC[C@@]4(C)[C@]3(C)CC[C@@H]12", "assayed-target": "786-0 renal", "property": "growth", "quantitative-readout": 94}
{"compound": "O=[N+]([O-])c1ccc(NC(=S)N/N=C/c2cc3ccccc3n3nnnc23)cc1", "assayed-target": "786-0 renal", "property": "growth", "quantitative-readout": 61.6}
{"compound": "N#CC1=C(/N=C/c2ccccc2)Oc2c(ccc3ccccc23)C1c1ccc([N+](=O)[O-])cc1 (configuration not stated)", "assayed-target": "786-0 renal", "property": "growth", "quantitative-readout": 102}
{"compound": "O=C(/C=C(/C=C/c1csc2ccccc12)OB(F)F)/C=C/c1csc2ccccc12", "assayed-target": "786-0 renal", "property": "growth", "quantitative-readout": -2.14}
{"compound": "Brc1ccc(Nc2csc(-c3ccccn3)n2)cc1", "assayed-target": "786-0 renal", "property": "growth", "quantitative-readout": 98.9}
{"compound": "CNC(=O)c1cccc(Cn2nc(C)c(NC(=O)c3ccc(COc4ccc(C(F)(F)F)cc4C)cc3)c2C)n1", "assayed-target": "786-0 renal", "property": "growth", "quantitative-readout": 61.9}

====

- System: MCF7 breast
- protocol-details: NCI-60 one-dose screen, 48 h (100 = growth as untreated, 0 = no growth, -100 = all killed)
- run-conditions: 10 µM unless noted
Compounds without any hit were thinned out: in the full panel of roughly 83,000, 20% have a hit.

{"molecule": "O=C(C[n+]1cccc2ccccc21)c1ccc(O)c(O)c1", "growth (%)": 21.8}
{"molecule": "C[C@H]1[C@H]2[C@H]3CC[C@@H]4[C@@]5(C)CC[C@H](O)C(C)(C)[C@@H]5CC[C@@]4(C)[C@]3(C)CC[C@]23CO[C@]1(C)[C@@H](C(=O)/C=C\\c1ccco1)C3", "growth (%)": 101}
{"molecule": "Oc1ccc(C2c3ccccc3Oc3ccccc32)c2cccnc12", "growth (%)": 17.4}
{"molecule": "CC(C)(C)[Si](C)(C)OC1[C@@H](O[Si](C)(C)C(C)(C)C)[C@@H](CNC(=O)NC(=O)CCl)O[C@H]1n1cnc2c(NC(=O)Nc3ccccc3)ncnc21 (some centres undefined)", "growth (%)": -71.8}
{"molecule": "C=CC(=O)N[C@@H](/C=C/C(=O)OCC)Cc1ccc(-c2cc(Cl)cc(Cl)c2)cc1", "growth (%)": 4.06}
{"molecule": "COc1cccc2c1c1nc3cc(C)c(C)cc3nc1n2CCN(C)C", "growth (%)": 4.64}
{"molecule": "O=C(/C(=C\\c1ccc([N+](=O)[O-])cc1)S(=O)Cc1ccc(Cl)cc1)c1ccc(Cl)cc1 (centres undefined)", "growth (%)": 49}
{"molecule": "COc1ccc(OC)c(CCn2cncc2-c2c[nH]c3ccccc23)c1", "growth (%)": 71}
{"molecule": "Cc1cc(C(=O)/C=C/c2ccc[nH]2)ccc1-n1ccc(C(F)(F)F)n1", "growth (%)": 82.7}

====

- Test system: SNB-75 CNS
- protocol-details: NCI-60 one-dose screen, 48 h (100 = growth as untreated, 0 = no growth, -100 = all killed)
- run-conditions: 10 µM unless noted
- Experimental: Growth inhibition of the SNB-75 human tumor cell line is measured as a screen for anti-cancer activity. Cells are grown in 96 well plates and exposed to the test compound for 48 hours. Compounds are tested at a single concentration, which is 10^-5 M for most compounds. The reported endpoint is percent growth (GI% or GIPRCNT), where numbers from 0 - 100% represent growth inhibition, and numbers from -100% - 0 represent cell death. For example, a value of 40 represents 60% growth inhibition. […]
The panel holds about 83,000 compounds, 20% with a hit somewhere; the sample as a whole holds those more often.
Kind request: treat 50% as inclusive, so growth at 50% or higher is y, anything lower is n.

{"compound": "COc1cc2nc(-c3ccc(C(F)(F)F)cc3)cc(OCCCN3CCOCC3)c2cc1OC", "classification": "n"}
{"compound": "CCCCCN1C=C/C(=C\\C(=O)N2CCCc3ccccc32)c2ccccc21", "classification": "y"}
{"compound": "COc1cc(/C(C)=C(\\c2ccc(Cl)cc2)c2ccc(OCCN(C)C)cc2)ccc1F", "classification": "y"}
{"compound": "O=C(CCN1CCCC1)Nc1ccc2c(NCc3ccccc3)c3ccccc3nc2c1", "classification": "n"}
{"compound": "NC(=S)N1N=C(c2ccccc2)CC1c1cn(-c2ccccc2)nc1-c1ccc(OCc2ccccc2)cc1 (centres undefined)", "classification": "y"}
{"compound": "CCOC(=O)CCN(CC(C)C)C(=S)Nc1ccccc1", "classification": "y"}
{"compound": "CC(=O)[C@@H]1CC[C@]2(CO)CC[C@]3(C)[C@H](CC[C@@H]4[C@@]5(C)CCCNC(C)(C)[C@@H]5CC[C@]43C)[C@@H]12", "classification": "y"}
{"compound": "CC1(C)c2[nH]c3ccccc3c2C[C@]2(C)[C@H]3C(=O)C=C4[C@@H]5C[C@@](C)(C(N)=O)CC[C@]5(C)CC[C@@]4(C)[C@]3(C)CC[C@@H]12", "classification": "y"}
{"compound": "COc1ccc(CNCCN2C(=O)c3ccc4c5c(ccc(c35)C2=O)C(=O)N(CCNCc2ccc(OC)c(OC)c2OC)C4=O)c(OC)c1OC", "classification": "n"}
{"compound": "CCC(CC)NCC(C)(C)O", "classification": "y"}
{"compound": "COC(=O)c1ccc2c(c1)[n+](=O)c(C(C)=O)c(C(F)(F)F)n2[O-]", "classification": "n"}
{"compound": "C=CCn1c(-c2ccc(-c3nc4ccc(C)cc4[nH]3)cc2)n[nH]c1=S", "classification": "y"}
{"compound": "Cc1cc2nc3c4cc(C=O)ccc4n(CCN(C)C)c3nc2cc1C", "classification": "n"}
{"compound": "O=C1Nc2cc(-c3cccc(O)c3)ccc2/C1=C/c1ccc[nH]1", "classification": "n"}
{"compound": "Cc1cccc(NC(=O)Nc2ccc(-n3cnc4cc(-c5ccc(O)cc5)ccc43)cc2)c1", "classification": "y"}
{"compound": "O=C1c2cccc3c(-c4ccc5c(c4)ncn5C4CCCCC4)ccc(c23)C(=O)N1c1nc2ccccc2s1", "classification": "y"}
{"compound": "O=C1c2cccc3c(-c4ccc5c(c4)ncn5C4CCCCC4)ccc(c23)C(=O)N1CCO", "classification": "y"}
{"compound": "COC(=O)C1=C(C(=O)ON)[C@@H]2C=C[C@@]1([C@@H](Cc1ccccc1)Nc1ccccc1)O2", "classification": "y"}
